# test_protocol: Primary qHTS for inhibitors of nuclear receptor binding SET domain protein 2 (NSD2) in an RCH-ACV wild type WT cells (2C) (AID 1645877); further: nearly all actives have a fitted effect of over 70% in size
# assay_conditions: RCH-ACV (leukaemia line) NSD2 WT (2C) viability, CellTiter-Glo, 72 h; series mostly up to 44.9 µM
Records with an inconclusive call do not appear. Active and inactive are the calls of the source. The call rests on the fitted dose curve; in most records, active means well fitted inhibition curve with a large enough effect; inconclusive means small, poorly fitted or top-dose-only effect; inactive means no such curve, though single readings can be large or run the other way. Peptide text beside a SMILES is read from it.
Outcome codes: active, inactive

| molecule | cat |
| --- | --- |
| CN1CCC(=C2c3ccccc3CCc3sccc32)CC1 | active |
| CCCCCCCCCCCCCCCCCCCCCCO | inactive |
| COc1ccc(C2(C#N)CCC(C(=O)O)CC2)cc1OC1CCCC1 (stereo not drawn) | inactive |
| CC1(C)NC(=O)N(c2ccc([N+](=O)[O-])c(C(F)(F)F)c2)C1=O | inactive |
| Cc1cc(Cl)ccc1OCCCC(=O)NO | active |
| O=C(NC(Cc1cc(=O)[nH]c2ccccc12)C(=O)O)c1ccc(Cl)cc1 (stereo not drawn) | inactive |
| CN(C)[C@@H](CCOc1cccc2ccccc12)c1ccccc1 | active |
| CCN(CC)CCOc1ccc(Nc2ncc3cc(-c4c(Cl)cccc4Cl)c(=O)n(C)c3n2)cc1 | active |
| Cc1ccc(S(=O)(=O)NC(=O)NN2CC3CCCC3C2)cc1 (stereo not drawn) | inactive |
| Nc1cc(C(Cl)=C(Cl)Cl)c(S(N)(=O)=O)cc1S(N)(=O)=O | inactive |
| Clc1ccc2c(N3CCN(CCCN4CCN(c5ccnc6cc(Cl)ccc56)CC4)CC3)ccnc2c1 | inactive |
| Cc1nc2n(c(=O)c1CCN1CCC(c3noc4cc(F)ccc34)CC1)CCCC2 | inactive |
| Nc1cccc2c1CN(C1CCC(=O)NC1=O)C2=O (stereo not drawn) | inactive |
| Cc1nc(-c2ccc(OCC(C)C)c(C#N)c2)sc1C(=O)O | inactive |
| N[C@@H](Cc1cc(I)c(Oc2cc(I)c(O)c(I)c2)c(I)c1)C(=O)O | inactive |
| O=C(O)c1cc(=O)c2c(OCC(O)COc3cccc4oc(C(=O)O)cc(=O)c34)cccc2o1 | inactive |
| COC(=O)[C@H](Cc1ccccc1)NC(=O)[C@@H](N)CC(=O)O (H-Asp-Phe-OMe) | inactive |
| C[Se]CCC(N)C(=O)O (stereo not drawn) | inactive |
| Cn1c(NCCN(CCO)CCCc2ccc([N+](=O)[O-])cc2)cc(=O)n(C)c1=O | inactive |
| Cc1ccc(C)c(OCCCC(C)(C)C(=O)O)c1 | inactive |
| CNC[C@H](O)c1ccc(O)c(O)c1 | inactive |
| O=C(O)c1cccnc1Nc1cccc(C(F)(F)F)c1 | inactive |
| Nc1nc(Cl)nc2c1ncn2[C@H]1C[C@H](O)[C@@H](CO)O1 | active |

----------
# test_protocol: S16 Schwann cell viability assay (CellTiter-Glo assay) (AID 624031); further: nearly all actives have a fitted effect of over 70% in size
# assay_conditions: S16 rat Schwann cells viability, 24 h; series mostly up to 57.5 µM
Inconclusive results are not listed. The source made the active and inactive calls. Calls come from the whole dose curve; as a rule, active = well fitted cell-killing curve with a large enough effect; inconclusive = small, poorly fitted or top-dose-only effect, or effect the other way; inactive = flat fitted curve, though single readings scatter.
Outcome codes: y = active, n = inactive

| compound | cat |
| --- | --- |
| CN(C)CCc1c[nH]c2ccc(Cn3cncn3)cc12 | n |
| CN(C)C(=O)COC(=O)Cc1ccc(OC(=O)c2ccc(N=C(N)N)cc2)cc1 | n |
| O=C(O)CCNC(=O)c1ccc(N=Nc2ccc(O)c(C(=O)O)c2)cc1 | n |
| O=C1c2ccccc2-c2n[nH]c3cccc1c23 | n |
| C[C@]12CCC(=O)C=C1CC[C@@H]1[C@H]2[C@@H](O)C[C@@]2(C)[C@H]1CC[C@]2(O)C(=O)CO | n |
| Cc1nc2n(c(=O)c1CCN1CCC(c3noc4cc(F)ccc34)CC1)CCCC2 | n |
| O=C1CCc2ccc(OCCCCN3CCN(c4cccc(Cl)c4Cl)CC3)cc2N1 | y |
| CCCOc1ccc2nc(NC(=O)OC)[nH]c2c1 | n |
| O=C(NCCO[N+](=O)[O-])c1cccnc1 | n |
| CCCCCCCCCCCCCCCCCCCCCCO | n |
| Nc1ccn([C@@H]2O[C@H](CO)[C@@H](O)C2O)c(=O)n1 (stereo partly specified) | n |

----------
# test_protocol: qHTS of pediatric cancer cell lines to identify multiple opportunities for drug repurposing: Primary screen for MG 63 (6-TG R) cells (AID 1347105); further: nearly all actives have a fitted effect of over 50% in size
# assay_conditions: MG 63 (6-TG R) viability, CellTiter-Glo, 48 h; series mostly up to 46 µM
Inconclusive results are not listed. Active and inactive are the calls of the source. Calls follow the shape of the dose curve; as a rule, active = well fitted cell-killing curve with a large enough effect; inconclusive = small, poorly fitted or top-dose-only effect; inactive = no such curve, though single readings can be large or run the other way.
Outcome codes: T = active, F = inactive

| compound | cat |
| --- | --- |
| O=C1c2ccccc2-c2n[nH]c3cccc1c23 | F |
| Cc1ccc(C(=O)c2cc(O)c(O)c([N+](=O)[O-])c2)cc1 | F |
| Nc1cccc2c1CN(C1CCC(=O)NC1=O)C2=O (configuration not stated) | F |
| O=C(NCCO[N+](=O)[O-])c1cccnc1 | F |
| NNc1nncc2ccccc12 | F |
| CC[C@]1(O)C[C@H]2CN(CCc3c([nH]c4ccccc34)[C@@](C(=O)OC)(c3cc4c(cc3OC)N(C=O)[C@H]3[C@@](O)(C(=O)OC)[C@H](OC(C)=O)[C@]5(CC)C=CCN6CC[C@]43[C@@H]65)C2)C1 | T |
| O=C(O)CCNC(=O)c1ccc(N=Nc2ccc(O)c(C(=O)O)c2)cc1 | F |
| O=C(CCc1ccc(O)cc1)c1c(O)cc(O)cc1O | F |
| O=C(OC1C[C@H]2CC[C@@H](C1)[N+]21CCCC1)C(O)(c1ccccc1)c1ccccc1 (some centres not stated) | F |
| COc1cc(C(C)=O)ccc1OCCCN1CCC(c2noc3cc(F)ccc23)CC1 | F |
| C[Se]CCC(N)C(=O)O (configuration not stated) | F |
| CC(C)[N+]1(C)[C@@H]2CC[C@H]1CC(OC(=O)C(CO)c1ccccc1)C2 (some centres not stated) | F |
| CC1Cc2ccccc2N1NC(=O)c1ccc(Cl)c(S(N)(=O)=O)c1 (configuration not stated) | F |
| C[C@H](Cn1cnc2c(N)ncnc21)OCP(=O)(O)O | F |
| CN(c1nccc(=O)[nH]1)C1CCN(c2nc3ccccc3n2Cc2ccc(F)cc2)CC1 | F |
| CNC[C@H](O)c1ccc(O)c(O)c1 | F |
| Cc1cc(O)c2c(c1)C(=O)c1cc(O)cc(O)c1C2=O | F |
| CC(=O)NC[C@H]1CN(c2ccc(N3CCOCC3)c(F)c2)C(=O)O1 | F |
| COC1=C(OC)C(=O)C(CCCCCCCCCCO)=C(C)C1=O | F |
| CCCCN(CCCC)CCC(O)c1cc2c(Cl)cc(Cl)cc2c2cc(C(F)(F)F)ccc12 (configuration not stated) | F |
| Nc1nc(N)c(N=O)c(OCC2CCCCC2)n1 | T |
| Cc1ccc(S(=O)(=O)NC(=O)NN2CC3CCCC3C2)cc1 (configuration not stated) | F |

----------
# test_protocol: qHTS drug screen for cell cycle checkpoint inhibitors in PARPi-resistant BRCA-mutant ovarian cancer cell lines. (AID 1963452)
# assay_conditions: PEO1/OlaR viability, CellTiter-Glo luminescence, 96 h; measured here: PEO4 Z-AUC; stronger effect = lower value
# Source text: Women's Malignancies Branch, Center for Cancer Research (CCR), National Cancer Institute (NCI), National Institutes of Health (NIH), Bethesda, MD Poly (ADP-ribose) polymerase inhibitors (PARPis) have changed the treatment paradigm in breast cancer gene (BRCA) - mutant high-grade serous ovarian carcinoma (HGSC). […] 6; Detection; Luminescence, PHERAstar (BMG Labtech) plate reader. […] 6. Luminescence readings were taken using PHERAstar (BMG Labtech). […]

| molecule | Z-AUC |
| --- | --- |
| c1ccc2[nH]c(-c3cscn3)nc2c1 | 0.0577 |
| NC(=NCc1ccccc1)NC(=O)c1nc(Cl)c(N)nc1N | -0.0693 |
| O=C(CCc1ccc(O)cc1)c1c(O)cc(O)cc1O | -0.52 |
| COc1cc(OC)c(C(=O)CCCN2CCCC2)c(OC)c1 | 0.794 |
| Nc1ccc(S(N)(=O)=O)cc1 | 0.56 |
| CC(=O)N1CCN(c2ccc(OC[C@H]3CO[C@](Cn4ccnc4)(c4ccc(Cl)cc4Cl)O3)cc2)CC1 | 0.494 |
| CNC[C@H](O)c1ccc(O)c(O)c1 | 1.03 |
| CC(C)C[C@H](NC(=O)[C@H](Cc1ccccc1)NC(=O)c1cnccn1)B(O)O | -2.39 |
| CC(=O)Nc1ccc(O)cc1 | 0.415 |
| Nc1nc(N)c(N=O)c(OCC2CCCCC2)n1 | 0.22 |
| Nc1nc(Cl)nc2c1ncn2[C@H]1C[C@H](O)[C@@H](CO)O1 | -0.649 |
| CCOC(=O)C1=C(O)C(=O)N(Cc2ccccc2)C1 | 1.38 |
| Clc1ccc(C(Cn2ccnc2)OCc2ccc(Sc3ccccc3)cc2)c(Cl)c1 (centres undefined) | -0.326 |
| Cc1cc(=O)oc2cc(O)ccc12 | 0.848 |
| CN1C(C(=O)Nc2ccccn2)=C(O)c2sccc2S1(=O)=O | 1.02 |
| Cc1ccc(S(=O)(=O)NC(=O)NN2CC3CCCC3C2)cc1 (centres undefined) | 1.09 |
| CCCOc1ccc2nc(NC(=O)OC)[nH]c2c1 | -0.563 |
| Cc1cc2c(s1)Nc1ccccc1N=C2N1CCN(C)CC1 | -0.45 |
| CC1(C)CCC(C)(C)c2cc(NC(=O)c3ccc(C(=O)O)cc3)ccc21 | -0.341 |
| CC(C)c1ccc2c(c1)c(SC(C)(C)C)c(CC(C)(C)C(=O)O)n2Cc1ccc(Cl)cc1 | 0.661 |
| O=C(O)c1cc(=O)c2c(OCC(O)COc3cccc4oc(C(=O)O)cc(=O)c34)cccc2o1 | 1 |
| CC1=C(C)C(=O)C(C(CCCCCC(=O)O)c2ccccc2)=C(C)C1=O (centres undefined) | 0.237 |
| c1cnc2cc3c(cc2n1)C1CNCC3C1 | -0.403 |
| COc1ccc2cc([C@H](C)C(=O)O)ccc2c1 | -0.0585 |

Each recorded value in this set is attributed to PubChem BioAssay (NCATS).
